system: Saccharomyces cerevisiae; experiment: protein stability index of tFT-peptide fusion (C-terminal peptide) (PSI (0-1 scale)); higher = more stable (slower turnover); settings: genetic background: das1 deletion; temperature: 30 C;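 also: PSI is a weighted mean of sequencing reads over stability bins, variants kept only with over 10 reads, mCherry proximal and sfGFP distal, peptide attached via GGGS linker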
Tag: yes if measured protein stability index is not below 0.5, no if it is.

RFPFFLPFIAFL yes
PPIPTPSPIPLH yes
VPRGAALIFLCF yes
ALLLLLRRFFLV yes
WLCVFVFGIFFV no

Asked: Is reported protein stability index greater than or equal to 0.5 here: VFSCFLFLVVLV
Given back: no

Asked: Thanks! And FFVWGVFLGVSW ?
Given back: no

Asked: Same for RLLFFVFLSSRF
Given back: no
